Provenance of the data: patent US10711000B2

target: Autotaxin (Homo sapiens, UniProt Q13822); construct: from tissue; host or cells: pooled human plasma; assay: LPA formation in pooled human plasma (ex vivo autotaxin inhibition); assay type: biochemical; conditions: 2 hours incubation, LPA 18:2 by LC/MS/MS, read-out: LPA formation (18:2) (IC50)
pIC50: −log10 of the molar value.
Overview of reported pIC50 across a group of compounds:

CCc1nn2cc(C)c(N3CC4(CN(C(=O)[C@H]5CCOC5)C4)C3)cc2c1N(C)c1nc(-c2ccc(F)cc2)c(C#N)s1 | ≥ 7.00
CCn1nc2c(C)cc(N3CCN(CC(=O)N4CC(O)C4)CC3)cc2c1N(C)c1nc(-c2ccc(F)cc2)c(C#N)s1 | 6.00 to 6.30
CCc1nn2cc(F)c(N3CCC4(CC3)CN(C(=O)N3CC(O)C3)C4)cc2c1N(C)c1nc(-c2ccc(F)cc2)c(C#N)s1 | ≥ 7.00
CCc1nn2c(C)cc(N3CC4(CCN(C(=O)[C@H]5CCCO5)C4)C3)cc2c1N(C)c1nc(-c2ccc(F)cc2)c(C#N)s1 | 6.30 to 7.00
Cc1cn2nc(C3CC3)c(N(C)c3nc(-c4ccc(F)cc4)c(C#N)s3)c2cc1N1CCN(CC(=O)N2CC(O)C2)CC1 | ≥ 7.00

Any idea what pIC50 was measured for CCn1nc2nc(C)c(N3CC4(CN(C(=O)C5CCOCC5)C4)C3)cc2c1N(C)c1nc(-c2ccc(F)cc2)c(C#N)s1 ? ≥ 7.00

// lookup pIC50 for CCc1nn2c(C)cc(N3CCC4(CN(C(=O)N5CC(O)C5)C4)C3)cc2c1N(C)c1nc(-c2ccc(F)cc2)c(C#N)s1 ≥ 7.00

Fill in: pIC50 of CCc1nn2c(C)cc(N3CC4C(C3)C4NC(=O)[C@H]3CCOC3)cc2c1N(C)c1nc(-c2ccc(F)cc2)c(C#N)s1 (some centres unmarked) is ___ 6.30 to 7.00

# input compound: CCc1nn2c(C)cc(N3CC4(CN(C(=O)N5CCN(C)CC5)C4)C3)cc2c1N(C)c1nc(-c2ccc(F)cc2)c(C#N)s1 ; wanted: its pIC50 ≥ 7.00

# lookup: pIC50 of Cc1cc(N2CCN(C3COCC3O)CC2)cc2c(N(C)c3nc(-c4ccc(F)cc4)c(C#N)s3)c(C3CC3)nn12 (centres unmarked) 6.30 to 7.00

Tell me the measured pIC50 of CCc1nn2c(C)cc(N3CC4(C3)CN(S(C)(=O)=O)C4)cc2c1N(C)c1nc(-c2ccc(F)cc2)c(C#N)s1 , please. 6.30 to 7.00

Report pIC50 for Cc1cc(N2CCN(CC(=O)O)CC2)cc2c(N(C)c3nc(-c4ccc(F)cc4)c(C#N)s3)c(C3CC3)nn12 please. < 6.00

Form field: reported pIC50 of CCc1nn2c(C)cc(N3CCC4(CN(C(=O)[C@H]5CCOC5)C4)C3)cc2c1N(C)c1nc(-c2ccc(F)cc2)c(C#N)s1 ≥ 7.00

What value of measured pIC50 is listed for CCc1nn2c(C)cc(N3CCC4(CCN(C)C4=O)CC3)cc2c1N(C)c1nc(-c2ccc(F)cc2)c(C#N)s1 ? < 6.00

Which pIC50 is listed for CCc1nn2c(C)cc(N3CC4(CN(C(=O)N5CCOCC5)C4)C3)cc2c1N(C)c1nc(-c2ccc(F)cc2)c(C#N)s1 ? ≥ 7.00

Look up pIC50: CCc1nn2cc(F)c(N3CC4(CN(C(=O)[C@H]5CCOC5)C4)C3)cc2c1N(C)c1nc(-c2ccc(F)cc2)c(C#N)s1 ≥ 7.00

Please give the measured pIC50 for this compound: Cc1cc(N2CCC(N3CC(O)C3)CC2)cc2c(N(C)c3nc(-c4ccc(F)cc4)c(C#N)s3)c(C3CC3)nn12 6.30 to 7.00

====

Each record here notes measured pIC50.
molecular target: Autotaxin (Homo sapiens); construct: from tissue; host or cells: pooled human plasma; test: LPA formation in pooled human plasma (ex vivo autotaxin inhibition); assay type: biochemical; conditions: 2 hours incubation, LPA 18:2 by LC/MS/MS, read-out: LPA formation (18:2) (IC50)
pIC50: −log10 of the molar value.

See these solved cases before continuing.
CCc1nn2c(C)cc(N3CC4(CN(C(=O)[C@@H](C)O)C4)C3)cc2c1N(C)c1nc(-c2ccc(F)cc2)c(C#N)s1 | 6.30 to 7.00
Cc1cc(N2CC3(CN(C(=O)C45CC(C4)C5)C3)C2)cc2c(N(C)c3nc(-c4ccc(F)cc4)c(C#N)s3)c(C3CC3)nn12 | 6.30 to 7.00
Cc1cc(N2CC3(CN(C(=O)C4CN(C)C4)C3)C2)cc2c(N(C)c3nc(-c4ccc(F)cc4)c(C#N)s3)c(C3CC3)nn12 | ≥ 7.00
CN(c1nc(-c2ccc(F)cc2)c(C#N)s1)c1c(C2CC2)nn2cc(F)c(N3CC4(CN(C(=O)[C@H]5CCOC5)C4)C3)cc12 | ≥ 7.00
CCc1nn2c(C)cc(N3CC4(CN(C(=O)CO)C4)C3)cc2c1N(C)c1nc(-c2ccc(F)cc2)c(C#N)s1 | 6.30 to 7.00
CCc1nn2c(C)cc(N3CCN(CC(=O)N4CC(CO)C4)CC3)cc2c1N(C)c1nc(-c2ccc(F)cc2)c(C#N)s1 | ≥ 7.00

State its pIC50 on Autotaxin (Homo sapiens): CCc1nn2c(C)cc(N3CC4(CCN(C(=O)C(C)(C)O)C4)C3)cc2c1N(C)c1nc(-c2ccc(F)cc2)c(C#N)s1 ≥ 7.00

Record lookup: for Autotaxin (Homo sapiens), what pIC50 belongs to CCc1nn2c(C)cc(N3CCC4(CN(CC(O)CO)C4)C3)cc2c1N(C)c1nc(-c2ccc(F)cc2)c(C#N)s1 (centres unmarked) ? 6.30 to 7.00
